# EXPERIMENT DESCRIPTION: Clearance in Sprague-Dawley rat at 1 mg/kg, iv and 4 mg/kg, po
# Assay type: ADME, organism-based
# RUN PARAMETERS: in vivo
ASSAY READOUT: clearance (mL/min/kg)

C[C@@H]1CN(C(=O)N[C@H](Cc2ccc(F)cc2)C(=O)N2CCC(C(=O)NC(C)(C)C)(C3CCCCC3)CC2)C[C@@H](C)N1
43

P: C[C@@H]1CN(C(=O)N[C@H](Cc2ccc(F)cc2)C(=O)N2CCC(C(=O)NC(C)(C)C)(C3CCCCC3)CC2)C[C@H](C)N1
Q: CC[C@@H]1CN(C(=O)N[C@H](Cc2ccc(F)cc2)C(=O)N2CCC(C(=O)NC(C)(C)C)(C3CCCCC3)CC2)C[C@@H](CC)N1
Qu. Hi there! Just curious which has the higher clearance between P and Q . Please respond with the label that marks your chosen entry.
Ans. Q
(Q: 62 mL/min/kg, P: 35 mL/min/kg)

* * *

# TARGET OR SYSTEM: Melanocyte-stimulating hormone receptor (Homo sapiens)
# Sequence (Q01726 whole entry): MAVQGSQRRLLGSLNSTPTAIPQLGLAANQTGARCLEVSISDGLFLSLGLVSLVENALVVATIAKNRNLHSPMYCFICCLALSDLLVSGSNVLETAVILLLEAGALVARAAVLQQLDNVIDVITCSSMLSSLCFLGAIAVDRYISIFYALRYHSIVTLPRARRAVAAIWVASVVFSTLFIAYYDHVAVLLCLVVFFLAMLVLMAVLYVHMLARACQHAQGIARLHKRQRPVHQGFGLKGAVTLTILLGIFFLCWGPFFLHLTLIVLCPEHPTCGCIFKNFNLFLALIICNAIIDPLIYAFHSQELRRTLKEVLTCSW
# EXPERIMENT DESCRIPTION: Agonist activity at human MC1 receptor expressed in CHO cells assessed as cAMP accumulation
pEC50: −log10 of the molar value.
ASSAY READOUT: pEC50

Worked cases, answers included:
C[C@H]1CN(C(=O)N[C@H](Cc2ccc(F)cc2)C(=O)N2CCC(C(=O)NC(C)(C)C)(C3CCCCC3)CC2)C[C@H](C)N1
6.60
CC[C@@H]1CN(C(=O)N[C@H](Cc2ccc(F)cc2)C(=O)N2CCC(C(=O)NC(C)(C)C)(C3CCCCC3)CC2)C[C@@H](CC)N1
6.40
C[C@@H]1CN(C(=O)N[C@H](Cc2ccc(F)cc2)C(=O)N2CCC(C(=O)NC(C)(C)C)(C3CCCCC3)CC2)C[C@@H](C)N1
6.59
CC[C@@H]1CN(C(=O)N[C@H](Cc2ccc(F)cc2)C(=O)N2CCC(C(=O)NC(C)(C)C)(C3CCCCC3)CC2)C[C@H](CC)N1
6.38

1: C[C@@H]1CN(C(=O)N[C@H](Cc2ccc(Cl)cc2)C(=O)N2CCC(C(=O)NC(C)(C)C)(C3CCCCC3)CC2)C[C@H](C)N1
2: C[C@@H]1CN(C(=O)N[C@H](Cc2ccc(F)cc2)C(=O)N2CCC(C(=O)NC(C)(C)C)(C3CCCCC3)CC2)C[C@H](C)N1C
Qu. From the items above, decide which of 1 and 2 has the lower pEC50 reading. State your choice using its label.
Ans. 2
(2: 6.04, 1: 6.55)

* * *

# EXPERIMENT DESCRIPTION: Half life in Beagle dog at 1 mg/kg, po
# Format: ADME, organism-based, Canis lupus familiaris
# Design: dose 1 mg/kg, route oral
# RUN PARAMETERS: in vivo
ASSAY READOUT: half-life (h)
# number only, unit h dropped from output

Qu. Please give the measured half-life for this molecule: `C[C@@H]1CN(C(=O)N[C@H](Cc2ccc(F)cc2)C(=O)N2CCC(C(=O)NC(C)(C)C)(C3CCCCC3)CC2)C[C@H](C)N1`
Ans. 5.1

* * *

# EXPERIMENT DESCRIPTION: Half life in Sprague-Dawley rat at 1 mg/kg, iv and 4 mg/kg, po
# Format: ADME, organism-based
# RUN PARAMETERS: in vivo
ASSAY READOUT: half-life (h)

CC[C@@H]1CN(C(=O)N[C@H](Cc2ccc(F)cc2)C(=O)N2CCC(C(=O)NC(C)(C)C)(C3CCCCC3)CC2)C[C@@H](CC)N1
1.8
C[C@@H]1CN(C(=O)N[C@H](Cc2ccc(F)cc2)C(=O)N2CCC(C(=O)NC(C)(C)C)(C3CCCCC3)CC2)C[C@H](C)N1
2

I: C[C@@H]1CN(C(=O)N[C@H](Cc2ccc(F)cc2)C(=O)N2CCC(C(=O)NC(C)(C)C)(C3CCCCC3)CC2)C[C@@H](C)N1
II: CC[C@@H]1CN(C(=O)N[C@H](Cc2ccc(F)cc2)C(=O)N2CCC(C(=O)NC(C)(C)C)(C3CCCCC3)CC2)C[C@H](CC)N1
Qu. Sorting by half-life in descending order, would I or II appear first? Your choice should be expressed through its label.
Ans. I
(I: 4.2 h, II: 1.7 h)
